Data credit: PubChem BioAssay (NCI)

In this section we review reported growth values for a set of compounds.
Test system: HT29 colon
Assay: NCI-60 one-dose screen, 48 h (100 = growth as untreated, 0 = no growth, -100 = all killed)
Conditions: 10 µM
Protocol: Growth inhibition of the HT29 human tumor cell line is measured as a screen for anti-cancer activity. Cells are grown in 96 well plates and exposed to the test compound for 48 hours. Compounds are tested at a single concentration, which is 10^-5 M for most compounds. The reported endpoint is percent growth (GI% or GIPRCNT), where numbers from 0 - 100% represent growth inhibition, and numbers from -100% - 0 represent cell death. For example, a value of 40 represents 60% growth inhibition. […]
About 83,000 compounds went through this panel and 20% of them were active in at least one assay; those are over-represented in the sample as a whole.
assay.endpoint: growth (%)

{"columns": ["line.notation", "assay.endpoint", "reported.measurement"],
 "data": [
  ["Clc1cc(Cl)c(Cl)c(-c2nc(-c3cccnc3)cs2)c1", "growth", 46.3],
  ["Cc1nc(N)sc1Sc1nc2ccc(Cl)cc2c(=O)n1-c1ccc(Oc2ccccc2)cc1", "growth", 55.9],
  ["Cc1ccc(Cl)cc1Nc1nc(C(F)(F)F)ccc1C(=O)N/N=C/c1c(Cl)cccc1Cl", "growth", 16.6],
  ["CCN(CC)CCOC(=O)c1ccc(N=Nc2ccc(O)c(OC)c2)cc1", "growth", 90.7],
  ["CC(C)C[C@H](NC(=O)CCn1ccc2ccccc2c1=O)B(O)O", "growth", 25.7],
  ["CCN(CC)CCCOC(=O)Nc1ccccc1Cl", "growth", 103],
  ["COc1cc([C@@H]2c3cc4c(cc3[C@H](SC(=N)N)[C@H]3COC(=O)[C@H]23)OCO4)cc(OC)c1OC", "growth", 8.38],
  ["Cc1cc(/C=C2\\SC(=Nc3ccccc3)N(C3CCCC3)C2=O)c(C)n1-c1ccc(Cl)cc1", "growth", -65.8],
  ["COc1ccc(-c2ccccc2)cc1C(=O)c1ccc(-c2ccccc2)cc1", "growth", 41.8],
  ["CC(C)(C)c1ccc(OCCCCCCN2CCNCC2)cc1", "growth", 25]
]}

====

Tested on: A549/ATCC NSCLC
Assay: NCI-60 one-dose screen, 48 h
Conditions: 10 µM
About 83,000 compounds went through this panel and 20% of them were active in at least one assay; those are over-represented in the sample as a whole. Active and inactive are the calls of the source. Rule for the calls: active = growth percent below 10; inactive = the rest.
Possible outcomes: active, inactive

{"columns": ["molecule", "cat"],
 "data": [
  ["O=[N+]([O-])c1ccc2c(c1)Cc1cc(I)ccc1-2", "inactive"],
  ["Cc1cc(Cl)ccc1Nc1nc(C(F)(F)F)ccc1C(=O)N/N=C/c1ccccc1Cl", "inactive"],
  ["O=[N+]([O-])c1ccc(-c2nc(-c3ccccc3)c(-c3ccccc3)n2-c2ccccc2)cc1", "inactive"],
  ["Nc1c(CNCc2nnn(Cc3ccccc3)c2N)nnn1Cc1ccccc1", "inactive"],
  ["CCC(O)c1ccc(Br)cc1NC(=O)c1cccc(Cl)c1 (stereo unspecified)", "active"],
  ["CCOC(=O)CNC(=O)Nc1ccc(Oc2ccc(NC(=O)NCC(=O)OCC)cc2)cc1", "inactive"],
  ["COC(=O)c1cnc2c(c1)Oc1ccccc1-c1ccnn1-2", "inactive"],
  ["CC(=O)Nc1nc(C)c(C(=O)N/N=C/c2cccn2C)s1", "inactive"],
  ["O=C(CSc1nnc(-c2ccc(Cl)cc2)o1)c1ccccc1", "inactive"],
  ["Cc1cc(C#Cc2ccccc2)ccc1-n1c(/C=C/c2cc(O)ccc2O)nc2ccccc2c1=O", "active"],
  ["Cc1ccc2nc3[nH]c(=O)[nH]c(=O)c3c(N)c2c1", "inactive"],
  ["CC(=O)/C(=C\\c1ccc(Cl)cc1)c1ccccc1", "inactive"],
  ["NC(=O)C1CCCN(Cc2c[nH]c3ccccc23)C1 (stereo unspecified)", "inactive"],
  ["Nc1ccccc1NC(=O)CCCCCCC(=O)Nc1ccc2c(c1)/C(=C/c1ccc[nH]1)C(=O)N2", "inactive"],
  ["COc1ccc2oc(=O)cc(C3c4ccc([nH]4)C(c4cc(=O)oc5ccc(OC)cc45)c4ccc([nH]4)C(c4cc(=O)oc5ccc(OC)cc45)c4ccc([nH]4)C(c4cc(=O)oc5ccc(OC)cc45)c4ccc3[nH]4)c2c1 (stereo unspecified)", "inactive"],
  ["S=C(Cc1ccc(-c2ccccc2)cc1)N1CCOCC1", "inactive"],
  ["Cn1c([N+](=O)[O-])cnc1C=C1C(=O)c2ccccc2C1=O", "inactive"],
  ["Fc1ccc2[nH]c3c(NCCCN4CCOCC4)ncnc3c2c1", "inactive"],
  ["O=C(COc1ccc(Cl)cc1Cl)Oc1coc(CSc2nc3ccccc3s2)cc1=O", "inactive"],
  ["CCOC(=O)c1ccc(N(C=O)CCC(=O)CCl)cc1", "inactive"],
  ["CCc1cc2n(n1)-c1ncc(C(=O)OC)cc1Oc1ccccc1-2", "inactive"]
]}

====

Test system: PC-3 prostate
Experiment: NCI-60 one-dose screen, 48 h (100 = growth as untreated, 0 = no growth, -100 = all killed)
Details: 10 µM
The panel holds about 83,000 compounds, 20% with a hit somewhere; the sample as a whole holds those more often.
Class TRUE: growth at least 30%. Class FALSE: growth below 30%.

{"columns": ["compound", "study.system", "cat"],
 "data": [
  ["O=C(N/N=c1/ccoc2cccnc12)N1CCN(c2ncccn2)CC1", "PC-3 prostate", "FALSE"],
  ["CN(C)c1ccc2cc(-c3cc4c(oc3=O)-c3ccccc3OC4O)c(=O)oc2c1 (stereo not given)", "PC-3 prostate", "FALSE"],
  ["COc1ccc(/C=C(\\c2cc(OC)c(OC)c(OC)c2)c2nnc(-c3cccs3)o2)cc1", "PC-3 prostate", "TRUE"],
  ["O=C(CCCC(=O)N/N=C/c1cc(Cl)ccc1O)N/N=C\\c1cc(Cl)ccc1O", "PC-3 prostate", "FALSE"],
  ["O=C(O)c1ccc(CNc2ccc(C(=O)CCl)cc2)cc1", "PC-3 prostate", "TRUE"],
  ["CN(C)c1ccc2c(c1)OC(N)=C(C#N)C2c1ccc2c(c1)CCCN2C (stereo not given)", "PC-3 prostate", "FALSE"],
  ["N#Cc1cnc2ccc(NCc3cnc[nH]3)cc2c1Nc1ccc(F)c(Cl)c1", "PC-3 prostate", "TRUE"],
  ["COc1cc(OC)cc(-c2n/c(=C\\c3c(O)[nH]c4ccc(OC)cc34)cc3c2=Nc2ccccc2-3)c1", "PC-3 prostate", "TRUE"],
  ["CC(C)c1[nH]nc2c(NCc3ccc(-c4ccccn4)cc3)nc(SCCN(C)C)nc12", "PC-3 prostate", "FALSE"],
  ["O=C(O)CCCCSCCCCC(=O)O", "PC-3 prostate", "TRUE"]
]}

====

Tested on: K-562 leukemia
Test: NCI-60 one-dose screen, 48 h
Settings: 10 µM
Compounds without any hit were thinned out: in the full panel of roughly 83,000, 20% have a hit. The source made the active and inactive calls. How the source made its calls: active means growth percent below 10; inactive means the rest.
Outcomes: active, inactive

{"columns": ["molecule", "cat"],
 "data": [
  ["COc1cccc2c1C(=O)c1c(O)c3c(c(O)c1C2=O)C[C@@](O)(C(=O)COC(=O)c1cccnc1)C[C@@H]3OC1CC(N)C(O)C(C)O1 (some centres not stated)", "active"],
  ["COc1ccc(C2C=C(c3ccc(Cl)c(Cl)c3)N=C3SC(C)=CN32)cc1 (configuration not stated)", "inactive"],
  ["Cc1ccc([P+](Cc2ccc([N+](=O)[O-])cc2)(c2ccc(C)cc2)c2ccc(C)cc2)cc1", "inactive"],
  ["CCc1c(C)[nH]c(=O)c(C(N)=O)c1C#N", "inactive"],
  ["COc1cc(/C=C2\\C(=O)Nc3cc(C)c(O)cc32)cc(OC)c1OC", "inactive"],
  ["CCC(O)c1ccc(Br)cc1NC(=O)c1cccc(Cl)c1 (configuration not stated)", "active"],
  ["Cc1ccc(NS(=O)(=O)c2ccccc2)c(NS(=O)(=O)c2ccccc2)c1", "inactive"],
  ["Cc1cc(C)c2nc(C)c(C)[n+]([O-])c2c1", "inactive"],
  ["O=C(NCCc1nccs1)c1cnc2c(S)cccc2c1", "active"],
  ["CCN1CCN(c2nc(NNC(=O)c3cccc(OC)c3)nc(N3CCN(C(c4ccccc4)c4ccccc4)CC3)n2)CC1", "inactive"],
  ["O=C(/C=C/c1nnc2n(Cc3ccccc3)c(=O)c3c4c(sc3n12)CCCC4)c1ccccc1", "active"],
  ["O=c1c2cccc3c(Nc4ccc(Br)cn4)ccc(c32)c2nc3ccccc3n12", "inactive"],
  ["CCOC(=O)Cn1nnc(-c2ccc(OCc3ccccc3F)cc2)n1", "inactive"],
  ["C=CCOc1ccc2c(c1)CC=C1[C@@H]2CC[C@]2(C)C(=O)/C(=N/O)C[C@@H]12", "active"],
  ["COC(=O)c1cnc2c(c1)Oc1ccc(Cl)cc1-c1cc(C)nn1-2", "inactive"],
  ["CC1(C)Cc2c(cn(Cc3ccccc3)c2-c2ccccc2)-c2oncc21", "inactive"],
  ["Nc1nsc(C(=O)c2ccc(O)cc2)n1", "inactive"],
  ["C=CCN1C(=O)/C(=C\\c2ccc3c(c2)CCC3)SC1=S", "inactive"],
  ["Cc1ccc(C)c(S(=O)(=O)NC2c3ccccc3Oc3ccccc32)c1", "inactive"],
  ["CC(=O)OCC(COC(C)=O)(COC(C)=O)COC(C)=O", "inactive"],
  ["CCCCOCCOCCOCc1cc2c(cc1Br)OCO2", "inactive"],
  ["CCCCCC(CCC)COC(=O)c1ccc(OC)cc1 (configuration not stated)", "inactive"]
]}
